# Test name: Stability testing of 5 crystalline forms over 8 weeks at harsh conditions (40° C., 75% relative humidity)
# Assay type: physicochemical
# Experimental context: 40° C./75% RH, 2 weeks
Test readout: Assay (%)
Answer with a number only, understood to be in %.

Below: 3 compounds and their reported Assay.
- Compound: "O=S1(=O)CCN(Cc2cc(NC3CCOCC3)c3[nH]c(-c4ccccc4)cc3c2)CC1 [Crystalline Form IV]"
  Test readout: "Assay"
  Unit label: "%"
  Observed: 105.36
- Compound: "O=S1(=O)CCN(Cc2cc(NC3CCOCC3)c3[nH]c(-c4ccccc4)cc3c2)CC1 [Crystalline Form XI]"
  Test readout: "Assay"
  Unit label: "%"
  Observed: 105.59
- Compound: "O=S1(=O)CCN(Cc2cc(NC3CCOCC3)c3[nH]c(-c4ccccc4)cc3c2)CC1 [Crystalline Form V]"
  Test readout: "Assay"
  Unit label: "%"
  Observed: 103.99

# context switch: different compound, same Assay
### Prompt State its Assay for this compound: O=S1(=O)CCN(Cc2cc(NC3CCOCC3)c3[nH]c(-c4ccccc4)cc3c2)CC1 [Crystalline Form VIII]
### Response 102.74

* * *

# Test name: Solubility screening of the compound of Chemical Formula 1 in various solvents (supernatant, HPLC)
# Assay type: physicochemical
# Experimental context: organic solvent or mixture, thermodynamic from solid; in DMF, NMP and DMSO (Table 3); read-out: Solubility
Test readout: Solubility

### Prompt State its Solubility for this compound: O=S1(=O)CCN(Cc2cc(NC3CCOCC3)c3[nH]c(-c4ccccc4)cc3c2)CC1 [compound of Chemical Formula 1]
### Response ≥ 40 mg/mL

* * *

# Test name: Stability testing of 5 crystalline forms over 8 weeks at harsh conditions (40° C., 75% relative humidity)
# Format: physicochemical
# Experimental context: 40° C./75% RH, 4 weeks
Entries and their Assay
Answer with a number only, understood to be in %.

### Prompt State its Assay for this compound: O=S1(=O)CCN(Cc2cc(NC3CCOCC3)c3[nH]c(-c4ccccc4)cc3c2)CC1 [Crystalline Form IV]
### Response 99.58

### Prompt State its Assay for this compound: O=S1(=O)CCN(Cc2cc(NC3CCOCC3)c3[nH]c(-c4ccccc4)cc3c2)CC1 [Crystalline Form V]
### Response 98.50

### Prompt State its Assay for this compound: O=S1(=O)CCN(Cc2cc(NC3CCOCC3)c3[nH]c(-c4ccccc4)cc3c2)CC1 [Crystalline Form XI]
### Response 103.58

### Prompt State its Assay for this compound: O=S1(=O)CCN(Cc2cc(NC3CCOCC3)c3[nH]c(-c4ccccc4)cc3c2)CC1 [Crystalline Form VIII]
### Response 105.56

* * *

# Test name: Solubility equilibrium in DMSO/EtOH mixed solvent by temperature
# Format: physicochemical
# Experimental context: DMSO/EtOH 1:4 mixed solvent, organic solvent or mixture, thermodynamic from solid, DMSO/EtOH 1:4, 75° C.
Test readout: solubility at 6 h (mg/mL)
Answer with a number only, understood to be in mg/mL.

### Prompt State its solubility at 6 h for this compound: O=S1(=O)CCN(Cc2cc(NC3CCOCC3)c3[nH]c(-c4ccccc4)cc3c2)CC1
### Response 31

* * *

# Test name: Solubility equilibrium in DMSO/EtOH mixed solvent by temperature
# Type: physicochemical
# Experimental context: DMSO/EtOH 1:5 mixed solvent, organic solvent or mixture, thermodynamic from solid, DMSO/EtOH 1:5, 75° C.
# Description: These were respectively heated and held at 50° C., 60° C., and 75° C. while being agitated for 6 hours. […] Accordingly, it was decided that a super-saturation method would be considered.
Test readout: solubility at 6 h
# output: number + unit

### Prompt State its solubility at 6 h for this molecule: O=S1(=O)CCN(Cc2cc(NC3CCOCC3)c3[nH]c(-c4ccccc4)cc3c2)CC1 [compound of Chemical Formula 1]
### Response 19 mg/mL
